Assay: chemical genetic growth profiling, strain panel (AID 1159580);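 note: tested at 20 µM; growth read once vehicle control cultures reached saturation at 30 °C; 1 = growth at the plate median or of vehicle wells; lower values mean less growth of the strain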
Details: S. cerevisiae deletion strains, growth OD, locus YLR330W, strain CHS5, active compounds read low
In all, about 5,500 compounds went through this assay and about 2,000 (36%) were called active. About 18% were inconclusive and are not listed. The list shows a part of the results.
Here the recorded normalized growth is given for each entry.
Could you keep your reply to the number by itself?

Reference set, count: 5
molecule="CO[C@H]1CC(O[C@@H]2/C(C)=C/C[C@@H]3C[C@@H](C[C@]4(CC[C@H](C)[C@@H](C5CCCCC5)O4)O3)OC(=O)[C@@H]3C=C(C)/C(=N\\O)[C@H]4OC/C(=C\\C=C\\[C@@H]2C)[C@]43O)O[C@@H](C)C1O (some centres not stated)" endpoint_result=0.978
molecule="CC(C)CC(NC(=O)OCC1c2ccccc2-c2ccccc21)C(=O)O (configuration not stated)" endpoint_result=0.984
molecule=OC[C@H]1O[C@@](CO)(O[C@@H]2O[C@H](CO)[C@@H](O)[C@H](O)[C@H]2O)[C@@H](O[C@@H]2O[C@H](CO)[C@@H](O)[C@H](O)[C@H]2O)[C@@H]1O endpoint_result=1.02
molecule="COc1ccc(C2Sc3ccccc3N(CCN(C)C)C(=O)C2OC(C)=O)cc1 (configuration not stated)" endpoint_result=1.01
molecule=CN(C)[C@@H]1C(=O)C(C(N)=O)=C(O)[C@@]2(O)C(=O)C3=C(O)c4c(O)cccc4[C@@](C)(O)[C@H]3[C@H](O)[C@@H]12 endpoint_result=1.01

What measured normalized growth goes with COc1cc(C/C=C/c2ccccc2)c(OC)cc1O ?
0.964

What measured normalized growth goes with C=C1c2c(Cl)ccc(O)c2C(O)=C2C(=O)[C@]3(O)C(O)=C(C(N)=O)C(=O)[C@@H](N(C)C)[C@@H]3[C@@H](O)[C@H]12 ?
0.981

What measured normalized growth goes with CC12CCC(=O)C=C1CCC1C2[C@@H](O)CC2(C)C1CC[C@]2(O)C(=O)COP(=O)(O)O (some centres not stated) ?
1.01

What measured normalized growth goes with CN(C)CCCN1c2ccccc2Sc2ccc(Cl)cc21 ?
1

What measured normalized growth goes with CN(C)CCCN1c2ccccc2CCc2ccc(Cl)cc21 ?
0.996

What measured normalized growth goes with CC(=O)O[C@@H]1C=C[C@@]2(C)C(C[C@@H](OC(C)=O)[C@@]3(C)C4=CC(=O)O[C@@H](c5ccoc5)[C@]4(C)CCC23)C1(C)C (some centres not stated) ?
1.01

What measured normalized growth goes with CCOC(=O)NNc1nncc2ccccc12 ?
0.992
